settings: in methyl acetate, 303.15 K

Structure smiles: O=c1cc(CO)occ1O
solubility (mole fraction): 0.0026

###

settings: in n-pentanol, 288.15 K

Structure smiles: O=c1cc(CO)occ1O
solubility (mole fraction): 0.0028

###

settings: in acetonitrile, 278.15 K

Structure smiles: O=c1cc(CO)occ1O
solubility (mole fraction): 0.00062

###

settings: in n-butanol, 303.15 K

Structure smiles: O=c1cc(CO)occ1O
solubility (mole fraction): 0.00538

###

details: in methyl acetate, 293.15 K

Structure smiles: O=c1cc(CO)occ1O
solubility (mole fraction): 0.00172

###

conditions: in isopropanol, 313.15 K
Observation type: solubility (mole fraction)

Structure smiles: O=c1cc(CO)occ1O
Result value: 0.00814

###

settings: in isopropanol, 308.15 K

Structure smiles: O=c1cc(CO)occ1O
solubility (mole fraction): 0.00667

###

settings: in sec-butanol, 288.15 K

Structure smiles: O=c1cc(CO)occ1O
solubility (mole fraction): 0.00315

###

conditions: in acetonitrile, 323.15 K

Structure smiles: O=c1cc(CO)occ1O
solubility (mole fraction): 0.00424

###

conditions: in THF, 323.15 K

Structure smiles: O=c1cc(CO)occ1O
solubility (mole fraction): 0.0199

###

details: in n-butanol, 288.15 K

Structure smiles: O=c1cc(CO)occ1O
solubility (mole fraction): 0.00289

###

details: in n-butanol, 318.15 K

Structure smiles: O=c1cc(CO)occ1O
solubility (mole fraction): 0.00935
